molecular target: UniProt:Q12809; experiment: Kv11.1 (hERG) ion channel activity (patch clamp assay), HEK293 cells transfected with hERG gene; conditions: human, HEK293 cells stably transfected with the hERG gene, Ki [Kv1.11 hERG], hERG patch clamp assay (cells without asterisk)
Sequence (Q12809 whole entry): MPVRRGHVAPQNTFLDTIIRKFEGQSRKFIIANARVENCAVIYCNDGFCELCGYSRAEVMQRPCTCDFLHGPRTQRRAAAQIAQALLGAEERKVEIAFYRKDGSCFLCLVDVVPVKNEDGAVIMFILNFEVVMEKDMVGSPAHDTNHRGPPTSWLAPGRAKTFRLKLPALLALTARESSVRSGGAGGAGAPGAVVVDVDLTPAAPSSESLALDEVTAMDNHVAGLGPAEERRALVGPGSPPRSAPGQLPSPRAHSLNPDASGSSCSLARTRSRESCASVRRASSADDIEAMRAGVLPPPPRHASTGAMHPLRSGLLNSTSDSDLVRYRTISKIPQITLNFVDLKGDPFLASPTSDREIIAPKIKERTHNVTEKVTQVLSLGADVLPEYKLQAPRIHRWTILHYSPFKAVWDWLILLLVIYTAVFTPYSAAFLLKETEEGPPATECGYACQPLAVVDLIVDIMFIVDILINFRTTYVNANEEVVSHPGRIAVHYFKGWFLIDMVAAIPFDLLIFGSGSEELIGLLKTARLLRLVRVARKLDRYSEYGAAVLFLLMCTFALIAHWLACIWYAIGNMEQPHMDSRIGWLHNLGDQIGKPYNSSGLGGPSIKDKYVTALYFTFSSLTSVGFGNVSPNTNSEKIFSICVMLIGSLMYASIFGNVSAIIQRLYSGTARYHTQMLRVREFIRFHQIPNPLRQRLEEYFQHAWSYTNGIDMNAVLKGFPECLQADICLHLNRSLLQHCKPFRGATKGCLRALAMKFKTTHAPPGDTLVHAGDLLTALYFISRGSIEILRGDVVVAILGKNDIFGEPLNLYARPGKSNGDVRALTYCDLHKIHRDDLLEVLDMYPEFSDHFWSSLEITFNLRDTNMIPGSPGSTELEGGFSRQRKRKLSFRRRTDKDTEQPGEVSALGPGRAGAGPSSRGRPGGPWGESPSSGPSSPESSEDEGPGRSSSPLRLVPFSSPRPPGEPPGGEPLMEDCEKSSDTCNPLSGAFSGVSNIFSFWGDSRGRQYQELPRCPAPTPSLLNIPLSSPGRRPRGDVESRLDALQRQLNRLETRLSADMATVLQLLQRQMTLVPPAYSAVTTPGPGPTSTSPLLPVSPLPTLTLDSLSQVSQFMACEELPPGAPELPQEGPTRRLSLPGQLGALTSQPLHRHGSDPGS
READOUT: Ki

MOLECULE	TARGET OF ASSAY	Ki
OC(c1cc(-c2ncnc3cc(N4CCOCC4)ccc23)c(F)cc1Cl)c1nccn2ccnc12 (single isomer, unassigned)	UniProt:Q12809	15 to 25 µM

# evaluate next
Query: Quick check: Ki on UniProt:Q12809, item OC(c1cccnn1)c1cc(-c2ncnc3cc(N4CCOCC4)ccc23)ccc1Cl (single isomer, unassigned) ?
Response: 10 to 15 µM
